Where do these numbers come from? They come from the kinase profiling compilation of Christmann-Franck et al. (2016).

# experimental_system: UniProt Q15759
# Sequence (Q15759 whole entry, looked up): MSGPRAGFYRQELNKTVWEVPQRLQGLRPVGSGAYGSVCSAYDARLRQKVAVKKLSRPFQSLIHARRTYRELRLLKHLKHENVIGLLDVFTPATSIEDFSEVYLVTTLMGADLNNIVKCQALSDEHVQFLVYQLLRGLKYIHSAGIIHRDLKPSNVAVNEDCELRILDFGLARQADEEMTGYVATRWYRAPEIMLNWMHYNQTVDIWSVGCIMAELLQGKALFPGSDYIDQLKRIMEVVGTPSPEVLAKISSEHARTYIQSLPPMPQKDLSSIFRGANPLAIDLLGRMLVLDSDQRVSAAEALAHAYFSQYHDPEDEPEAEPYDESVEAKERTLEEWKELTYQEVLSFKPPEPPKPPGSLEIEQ
# experiment_notes: KINOMEscan competition binding
# condition_parameters: compound 10.0 µM
Item-by-item account of kinase still bound, per cent of control
API: value field is a number in %; no unit string.

COc1cc(C(=O)N2CCC(N3CCN(C)CC3)CC2)ccc1Nc1ncc2c(n1)N(C)c1ccccc1C(=O)N2C : 60
COc1ccc(N(C(=O)Oc2c(C)cccc2C)c2ccnc(Nc3ccc(N4CCN(C)CC4)cc3)n2)c(OC)c1 : 11

Okay, next one:
The recorded kinase still bound, per cent of control for C=CC(=O)Nc1ccc(CN(C(=O)Nc2c(Cl)c(OC)cc(OC)c2Cl)c2cc(Nc3ccc(N4CCN(C)CC4)cc3)ncn2)cc1 is 100

====

# experimental_system: EPHA2 (human)
# experiment_notes: KINOMEscan competition binding
# condition_parameters: compound 10.0 µM
assay_endpoint: kinase still bound, per cent of control (%)
API: value field is a number in %; no unit string.

Consider the following illustrative entries.
Cc1n[nH]c2ccc(-c3cncc(OC[C@@H](N)Cc4c[nH]c5ccccc45)c3)cc12 : 100
CS(=O)(=O)N1CCN(Cc2cc3nc(-c4cccc5[nH]ncc45)nc(N4CCOCC4)c3s2)CC1 : 100
COc1cc2ncn(-c3cc(OCc4ccccc4C(F)(F)F)c(C(N)=O)s3)c2cc1OC : 44
NC(=O)Nc1cc(-c2cccc(F)c2)sc1C(=O)N[C@@H]1CCCNC1 : 7.4

For O=C(Nc1cccc(Nc2ncc(Br)c(NCCc3cnc[nH]3)n2)c1)N1CCCC1 on EPHA2 (human), measured kinase still bound, per cent of control was 60

====

# experimental_system: UniProt:P15056
# Sequence (P15056 whole entry, looked up): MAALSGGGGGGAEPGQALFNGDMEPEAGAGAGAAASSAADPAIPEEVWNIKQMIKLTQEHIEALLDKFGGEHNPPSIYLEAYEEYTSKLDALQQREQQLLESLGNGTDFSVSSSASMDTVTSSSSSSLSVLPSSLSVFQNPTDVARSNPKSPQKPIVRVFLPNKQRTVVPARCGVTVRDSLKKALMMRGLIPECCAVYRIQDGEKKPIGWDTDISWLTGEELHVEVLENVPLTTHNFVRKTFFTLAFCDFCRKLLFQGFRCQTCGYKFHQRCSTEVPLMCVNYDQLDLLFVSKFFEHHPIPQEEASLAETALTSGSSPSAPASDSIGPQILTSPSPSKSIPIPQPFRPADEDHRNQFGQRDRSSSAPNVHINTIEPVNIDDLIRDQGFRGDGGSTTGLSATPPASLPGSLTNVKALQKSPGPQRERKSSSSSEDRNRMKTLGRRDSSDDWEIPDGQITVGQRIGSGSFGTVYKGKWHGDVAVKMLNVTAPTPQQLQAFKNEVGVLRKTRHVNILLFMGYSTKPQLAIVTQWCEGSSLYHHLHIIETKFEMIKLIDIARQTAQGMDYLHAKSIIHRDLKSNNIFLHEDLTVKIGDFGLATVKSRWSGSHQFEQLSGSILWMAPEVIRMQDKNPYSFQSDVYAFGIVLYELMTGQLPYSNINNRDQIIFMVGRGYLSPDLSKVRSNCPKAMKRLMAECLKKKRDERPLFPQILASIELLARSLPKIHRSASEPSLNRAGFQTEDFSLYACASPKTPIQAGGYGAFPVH
# experiment_notes: KINOMEscan competition binding
# condition_parameters: compound 10.0 µM
Item-by-item account of kinase still bound, per cent of control
API: value field is a number in %; no unit string.

Consider the following illustrative entries.
COc1cc(N2CCN(C)CC2)ccc1Nc1ncc2c(n1)N(C)c1ccccc1C(=O)N2C : 100
COc1cc(C(=O)N2CCC(N3CCN(C)CC3)CC2)ccc1Nc1ncc2c(n1)N(C)c1ccccc1C(=O)N2C : 81
N#CCNC(=O)c1ccc(-c2ccnc(Nc3ccc(N4CCOCC4)cc3)n2)cc1 : 74
Cc1n[nH]c2ccc(-c3cncc(OC[C@@H](N)Cc4c[nH]c5ccccc45)c3)cc12 : 100
O=c1cc(N2CCOCC2)oc2c(-c3cccc4c3sc3ccccc34)cccc12 : 100
C[C@@H](Oc1cc(-c2cnn(C3CCNCC3)c2)cnc1N)c1c(Cl)ccc(F)c1Cl : 53
COc1cc2ncn(-c3cc(OCc4ccccc4C(F)(F)F)c(C(N)=O)s3)c2cc1OC : 100

Okay, next one:
The recorded kinase still bound, per cent of control for CCN(CC)CCCCNc1ncc2cc(-c3cc(OC)cc(OC)c3)c(NC(=O)NC(C)(C)C)nc2n1 is 100

====

# Tested on: EGFR (human), P00533 [752-759 del]
# Sequence (P00533 whole entry, looked up, stated change not applied): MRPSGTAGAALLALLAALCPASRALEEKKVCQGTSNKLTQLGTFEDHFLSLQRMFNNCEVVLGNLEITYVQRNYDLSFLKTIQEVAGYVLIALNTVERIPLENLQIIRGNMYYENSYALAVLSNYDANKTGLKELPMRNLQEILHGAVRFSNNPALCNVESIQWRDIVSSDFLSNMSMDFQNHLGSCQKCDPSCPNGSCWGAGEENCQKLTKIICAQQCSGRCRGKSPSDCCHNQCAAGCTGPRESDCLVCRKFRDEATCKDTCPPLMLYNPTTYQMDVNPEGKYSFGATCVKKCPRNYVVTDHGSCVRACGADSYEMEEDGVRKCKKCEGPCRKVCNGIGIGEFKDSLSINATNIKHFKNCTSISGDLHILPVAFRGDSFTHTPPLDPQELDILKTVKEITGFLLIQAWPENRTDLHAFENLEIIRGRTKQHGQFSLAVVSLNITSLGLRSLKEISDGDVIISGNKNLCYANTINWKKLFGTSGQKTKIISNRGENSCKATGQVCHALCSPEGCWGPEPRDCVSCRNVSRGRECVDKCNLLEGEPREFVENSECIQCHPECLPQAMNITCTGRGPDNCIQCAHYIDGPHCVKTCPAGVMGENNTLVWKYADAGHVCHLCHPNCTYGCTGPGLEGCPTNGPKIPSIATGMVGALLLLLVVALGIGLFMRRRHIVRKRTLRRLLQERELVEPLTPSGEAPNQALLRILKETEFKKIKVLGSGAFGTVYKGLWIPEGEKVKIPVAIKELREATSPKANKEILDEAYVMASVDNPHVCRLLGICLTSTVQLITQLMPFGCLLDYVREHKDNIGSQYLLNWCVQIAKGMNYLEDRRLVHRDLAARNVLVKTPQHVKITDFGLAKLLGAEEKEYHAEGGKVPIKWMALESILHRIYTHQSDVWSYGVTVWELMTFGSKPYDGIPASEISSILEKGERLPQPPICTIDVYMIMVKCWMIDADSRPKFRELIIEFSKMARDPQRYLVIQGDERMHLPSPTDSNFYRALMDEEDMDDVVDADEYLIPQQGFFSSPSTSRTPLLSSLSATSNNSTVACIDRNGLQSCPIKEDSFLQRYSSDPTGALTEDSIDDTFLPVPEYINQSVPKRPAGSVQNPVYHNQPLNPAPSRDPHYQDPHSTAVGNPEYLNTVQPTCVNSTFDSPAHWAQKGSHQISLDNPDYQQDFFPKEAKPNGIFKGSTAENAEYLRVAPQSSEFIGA
# experiment_notes: KINOMEscan competition binding
# condition_parameters: compound 10.0 µM
assay_endpoint: kinase still bound, per cent of control (%)
API: value field is a number in %; no unit string.

Consider the following illustrative entries.
COc1cc(C(=O)NC2CCN(C)CC2)ccc1Nc1ncc2c(n1)N(C1CCCC1)C(C)CC(=O)N2C (centres undefined) : 100
Cc1ccc2nc(NCCN)c3ncc(C)n3c2c1 : 100
CC(=O)c1c(C)c2cnc(Nc3ccc(N4CCNCC4)cn3)nc2n(C2CCCC2)c1=O : 87

Okay, next one:
The recorded kinase still bound, per cent of control for NC(=O)Nc1cc(-c2cccc(F)c2)sc1C(=O)N[C@@H]1CCCNC1 is 2.4
